System: Wolbachia pipientis
assay name: Anti-Wolbachia Cell-Based Screen
Type: functional
Design: scale not given: in the data most compounds retested in dose-response had high values
experimental setup: 5 µM
The whole screen tested about 48,000 compounds, of which about 13,000 (27%) showed an effect of 50% or more. Some of the results follow.
compounds and their reported Percent Effect
Express it in %; write the number only.

Take a look at these entries with their results.
> print(dat)
                               compound    test.readout  units.text  number
1  CS(=O)(=O)NC(=O)CCc1cccc(OC2CCCC2)c1  Percent Effect           %   2.726
2    Clc1cncc(NCc2cccc(COC3CCOCC3)c2)n1  Percent Effect           %   -1.49
3             OCCCNc1cccc(COC2CCCCC2)c1  Percent Effect           %   117.5
4    Cc1cccc(C2(NCCCS(C)(=O)=O)CCCC2)c1  Percent Effect           %  -2.725
5    CS(=O)(=O)CCCNc1cccc(COC2CCCCC2)c1  Percent Effect           %   108.4

QUERY: GET /values?readout=Percent Effect&item= CC(CO)NC(=O)Nc1ccc(COC2CCCC2)cc1 (configuration not stated)
RESULT: 8.692

QUERY: Continue with `O=C(NCCN1CCCC1)c1ccc2c(-c3nccs3)noc2c1`
RESULT: 3.961

----------
System: Wolbachia pipientis
assay name: Anti-Wolbachia Cell-Based Screen
Assay type: functional
Design: scale not given: in the data most compounds retested in dose-response had high values
experimental setup: 5 µM
About 13,000 (27%) of roughly 48,000 compounds showed an effect of 50% or more. The list shows a part of the results.
test readout: Percent Effect (%)
Value expressed in %; do not type the unit.

> print(dat)
                                   molecule   measurement.target  units.text   number
1  O=C(c1ccc(C2CCCN2C(=O)c2ccoc2)s1)N1CCOCC1 (stereo unspecified)  Wolbachia pipientis           %   -19.01
2  CC(C)c1nc(C2CCCN2c2ccnc(C3CCCC3)n2)no1 (stereo unspecified)  Wolbachia pipientis           %  0.08889
3  CC(C)c1nc(C2CCCN2CC(=O)Nc2nncs2)no1 (stereo unspecified)  Wolbachia pipientis           %  -0.6487
4  CC(C)c1noc(CN2CCCC2c2noc(C(C)C)n2)n1 (stereo unspecified)  Wolbachia pipientis           %    108.9
5  Cc1nnc(C(C)N2CCN(Cc3ccc(C(F)(F)F)cc3)CC2)o1 (stereo unspecified)  Wolbachia pipientis           %    124.3

QUERY: Find the recorded Percent Effect belonging to Cc1cc(CN2CCCC2c2noc(C(C)C)n2)on1 (stereo unspecified) and report it.
RESULT: 98.26

----------
Parameter: Percent Effect. Scope: all listed entries.
Tested on: Wolbachia pipientis
assay name: Anti-Wolbachia Cell-Based Screen
Format: functional
Parameters: scale not given: in the data most compounds retested in dose-response had high values
experimental setup: 5 µM
Out of some 48,000 compounds screened, about 13,000 (27%) showed an effect of 50% or more. This is one part of the list.
Write the number in % without appending the unit.

Look over these answered cases.
> print(dat)
                                   molecule    test.readout  number
1  Cc1cccc(-c2noc(CN3CCc4nn(C)c(=O)cc4C3)n2)c1  Percent Effect   -3.74
2  Cc1cccc(-c2noc(CN3CCC(c4ccn[nH]4)CC3)n2)c1  Percent Effect   -15.7
3  Cc1cccc(-c2noc(CN3CCOCC3C)n2)c1 (stereo unspecified)  Percent Effect   119.9
4  CSCC(C)(O)CNc1ccccn1 (stereo unspecified)  Percent Effect  -2.267
5   COc1ncc(C2(O)CCN(Cc3ccccc3O)CC2)c(OC)n1  Percent Effect  -6.313

Now for the molecule whose Percent Effect we want.
QUERY: Dear colleague, I am looking for the recorded Percent Effect of the following molecule: `COc1cc(OC)cc(C2(O)CCN(Cc3nc(C)c(C)o3)CC2)c1`
RESULT: -6.043

----------
Test system: Wolbachia pipientis
assay name: Anti-Wolbachia Cell-Based Screen
Format: functional
Set-up: scale not given: in the data most compounds retested in dose-response had high values
experimental setup: 5 µM
In all, about 48,000 compounds went through this assay and about 13,000 (27%) showed an effect of 50% or more. The list shows a part of the results.
test readout: Percent Effect (%)
Number in %, nothing else.

Study these solved cases before continuing.
> print(dat)
                                   molecule  units.text  number
1  CCC1CN(C(=O)c2ccccc2N2CCOCC2)CCN1C(C)C (configuration not stated)           %   8.112
2  CC1(C)C[C@H](CCNC(=O)c2ccncc2)c2ccccc2O1           %   152.5
3   Cc1nnc(CCNC2CCN(c3ncnc4c(C)csc34)CC2)s1           %  -2.082
4                 O=C(NCCNc1ccccn1)NC1CCCC1           %   1.673
5  O=C(NC[C@H]1OC[C@@H](NC(=O)c2ccccc2)[C@@H]1O)c1ccncc1           %  -2.654

QUERY: Need Percent Effect, item O=C1CC(c2ccc(C(=O)O)cc2)c2ncn(-c3ccc(Cl)cc3)c2N1 (configuration not stated)
RESULT: -3.148

QUERY: Similarly, CC(NCCCc1cnn(C)c1)c1ccc(Cl)s1 (configuration not stated) ?
RESULT: 3.726

QUERY: Try the molecule `Cc1cc(C(=O)N(C)Cc2cnn(C)c2)c(NC(=O)C(C)(C)C)s1`
RESULT: -6.693

QUERY: How about `COc1ccc2c(c1)[C@@H](CCNC(C)=O)CC(C)(C)O2` ?
RESULT: 118.9

QUERY: Repeat for the following molecule: `COCC(=O)NCC[C@H]1CC(C)(C)Oc2ccc(OC)cc21`
RESULT: 109.1

QUERY: Input `CN(Cc1ccco1)Cc1ccccc1CNC(=O)c1ccncc1`
RESULT: 21.51

QUERY: Please answer likewise for `COCC(=O)NCCc1ccc(I)s1`
RESULT: -6.07

----------
Test system: Wolbachia pipientis
assay name: Anti-Wolbachia Cell-Based Screen
Format: functional
Parameters: scale not given: in the data most compounds retested in dose-response had high values
experimental setup: 5 µM
Hit rate of the full screen: of about 48,000 compounds, about 13,000 (27%) showed an effect of 50% or more. This is one part of the list.
Percent Effect for assorted compounds
Please reply with the bare figure in % and do not write the unit itself.

Recorded results for 2 compounds are shown here.
> print(dat)
                          compound    test.readout  number
1  O=C(c1ccsc1)N1CCC(Nc2cccnn2)CC1  Percent Effect   95.56
2  O=C(c1ccoc1)N1CCC(Nc2cccnn2)CC1  Percent Effect   90.61

Next item in the queue.
QUERY: Look up Percent Effect: `COCCN1CCN(CC(=O)N(C)Cc2ccsc2)CC1`
RESULT: -3.337

----------
Test system: Wolbachia pipientis
assay name: Anti-Wolbachia Cell-Based Screen
Assay type: functional
Parameters: scale not given: in the data most compounds retested in dose-response had high values
experimental setup: 5 µM
The campaign covered roughly 48,000 compounds. About 13,000 (27%) showed an effect of 50% or more. The list shows a part of the results.
test readout: Percent Effect (%)
Just the number please, in %, no unit attached.

> print(dat)
                                   molecule  units.text  number
1  O=C(c1ccoc1)N1CCOCC2(CCN(Cc3cccs3)C2)C1 (stereo not given)           %   98.93
2  Cc1ccc(CN2CCOCC3(CCN(Cc4cccs4)C3)C2)o1.O=C(O)C(F)(F)F.O=C(O)C(F)(F)F (stereo not given)           %   110.5
3  Cc1occc1C(=O)N1CCOCC2(CCN(Cc3nccs3)C2)C1.O=C(O)C(F)(F)F (stereo not given)           %  -1.117

QUERY: # lookup: Percent Effect of CN(C)CCN1CCOCC2(CCCN(C(=O)c3ccoc3)C2)C1.O=C(O)C(F)(F)F.O=C(O)C(F)(F)F (stereo not given)
RESULT: -7.918

QUERY: Another molecule to check: O=C(NC1CC1)N1CCOCC2(CCN(Cc3cccs3)C2)C1.O=C(O)C(F)(F)F (stereo not given)
RESULT: 89.31

----------
Test system: Wolbachia pipientis
assay name: Anti-Wolbachia Cell-Based Screen
Assay type: functional
Set-up: scale not given: in the data most compounds retested in dose-response had high values
experimental setup: 5 µM
In all, about 48,000 compounds went through this assay and about 13,000 (27%) showed an effect of 50% or more. This is one part of the list.
Recorded Percent Effect values for a group of compounds are listed next.
The reply should be a number in %, with the unit left off.

Field: example entries. Status: answers known.
> print(dat)
                                    compound  units.text  number
 1  COCCO[C@H]1CCN(C(=O)c2cnccn2)[C@H]1Cc1ccncc1           %  -26.79
 2  CC(=O)N1CCn2c(-c3ccccc3)cnc2C12CCNCC2.O=C(O)C(F)(F)F.O=C(O)C(F)(F)F           %  -11.86
 3  CN(Cc1cnc(C(C)(C)C)nc1)Cc1nc2ccc(F)cc2[nH]1           %   92.92
 4                O=C(NCCNc1cnccn1)c1scnc1Cl           %   1.056
 5  Cc1cc(CN2CCCC2c2noc(C3CC3)n2)c2ccccc2n1 (stereo not given)           %   1.295
 6             c1ccc(COc2ccccc2NC2CCOCC2)nc1           %  -16.72
 7  CO[C@H]1CCN(C(=O)Cc2ccc(F)cc2)[C@H]1Cc1ccncc1           %   101.6
 8  Cc1ccc(-c2cnc3n2CCN(C)C32CCN(CC3CC3)CC2)cc1.O=C(O)C(F)(F)F.O=C(O)C(F)(F)F.O=C(O)C(F)(F)F           %  0.5048
 9           COc1ccc(Cl)cc1C(=O)NCCNc1cnccn1           %   117.3
10  CC(C)NC(=O)N[C@H]1C[C@@H](c2nc(-c3ccc(F)cc3)no2)N(C)C1           %  -4.692

QUERY: Which Percent Effect is listed for `Cc1ccc(CN(C)Cc2nc3ccc(F)cc3[nH]2)cn1` ?
RESULT: 92.16

QUERY: Cool, now `COCCCN(C)S(=O)(=O)c1ccc(Cl)cc1C#N`
RESULT: -9.182

All figures here come from ChEMBL document CHEMBL3988442.
